Origin of values: ChEMBL document CHEMBL5543173

- PROTOCOL_DETAILS: MRT (0 to t) in […] administered as hydroxypropyl-beta-cyclodextrin at 20 mg/kg, IG measured for 12 hrs by LC-MS/MS analysis
- Type: ADME, organism-based
- ASSAY_CONTEXT: in vivo, po
READOUT: MRT last at 12 h (h)

{"COMPOUND_STRUCTURE": "C=C(C)[C@@H]1CC[C@]2(C(=O)NCCCCCC(=O)OC)CC[C@]3(C)[C@H](CC[C@@H]4[C@@]5(C)CC[C@H](O[C@@H]6OC[C@H](O)[C@H](O)[C@H]6O[C@@H]6O[C@@H](C)[C@H](O)[C@@H](O)[C@H]6O)[C@@](C)(CO)[C@@H]5CC[C@]43C)[C@@H]12", "READOUT": "MRT last at 12 h", "TEST_VALUE": 4.05}
